Measured pEC50 accompanies every entry in the list below.
test.system: human GYS1 (glycogen synthase) (Homo sapiens, UniProt P13807)
Sequence (P13807 whole entry): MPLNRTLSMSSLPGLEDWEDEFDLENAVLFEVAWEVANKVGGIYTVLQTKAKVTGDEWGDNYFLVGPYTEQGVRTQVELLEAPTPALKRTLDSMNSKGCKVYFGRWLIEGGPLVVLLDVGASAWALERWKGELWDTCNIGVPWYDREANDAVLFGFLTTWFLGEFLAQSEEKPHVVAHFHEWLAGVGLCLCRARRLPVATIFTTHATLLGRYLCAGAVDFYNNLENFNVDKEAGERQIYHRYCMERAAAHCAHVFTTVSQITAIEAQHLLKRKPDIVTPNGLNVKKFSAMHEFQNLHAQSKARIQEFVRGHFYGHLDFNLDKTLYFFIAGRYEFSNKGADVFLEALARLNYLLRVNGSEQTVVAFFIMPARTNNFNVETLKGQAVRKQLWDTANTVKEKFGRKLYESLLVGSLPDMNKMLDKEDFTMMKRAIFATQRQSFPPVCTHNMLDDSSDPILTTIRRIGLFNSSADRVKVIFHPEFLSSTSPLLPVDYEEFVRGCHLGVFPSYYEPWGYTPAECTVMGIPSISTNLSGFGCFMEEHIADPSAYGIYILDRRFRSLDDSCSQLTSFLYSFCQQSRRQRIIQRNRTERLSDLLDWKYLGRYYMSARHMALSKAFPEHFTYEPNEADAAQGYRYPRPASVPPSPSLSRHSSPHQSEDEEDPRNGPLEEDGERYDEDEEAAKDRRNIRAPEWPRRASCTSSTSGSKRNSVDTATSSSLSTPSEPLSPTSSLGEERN
assay.procedure: Measurement of glycogen synthase activity
condition: concentration causing 50% increase in relative activity; 100% = compound of Example 1 of WO/2011/058154 at 10 μM; 10 mM Glucose-6-phosphate; 37° C. for 25 minutes (Examples 1 to 61 and 67 to 82) or 20 minutes (Examples 62 to 66); absorbance at 340 nm
pEC50: −log10 of the molar value. Counter-ions that a name gives are not always drawn.
experimental.endpoint: pEC50

In [3]: df
Out[3]:
                                   molecule   val
0  COC[C@@H]1CC[C@@H](C(=O)O)N1C(=O)c1cccc(COc2ccc(-c3cc(F)c(F)cc3SC)cc2)c1  7.77
1  CCNCCN(CC(=O)O)C(=O)c1cccc(COc2ccc(-c3cc(F)c(F)cc3SC)cc2)c1 [Example 43, Trifluoroacetate]  7.72
2  CSc1cc(F)c(F)cc1-c1ccc(OCc2cccc(C(=O)N3C[C@H](O)C[C@H]3C(=O)O)c2)cc1  7.72
3  CSc1cc(F)c(F)cc1-c1ccc(OCc2cccc(C(=O)N(CC(=O)O)CC3CCN(C)CC3)c2)cc1 [Example 37, Trifluoroacetate]  7.64
4  CSc1cc(F)c(F)cc1-c1ccc(OCc2cccc(C(=O)N(CC(=O)O)CC(=O)O)c2)cc1  8.00
5  CSc1cc(F)c(F)cc1-c1ccc(OCc2cccc(C(=O)N(CC(=O)O)C3CCNCC3)c2)cc1 [Example 36, Trifluoroacetate]  7.68
6  CSc1cc(F)c(F)cc1-c1ccc(OCc2cccc(C(=O)N(CC(=O)O)Cc3coc(C)n3)c2)cc1  7.89
